Tested on: 2nd order mesenteric artery side branches of Spontaneously Hypertensive Rats (SHR)
Assay: Reactivity of isolated arteries: dilator effect during contraction induced by 40 mmol/L K+
Design: species or system rat
Conditions: Rattus norvegicus; isolated SHR mesenteric resistance arteries pre-contracted with 40 mmol/L K+; effect worked out by comparing mixtures (Plackett-Burman design), corrected for solvent; read-out: EC50 of dilation of the arteries
value-type: EC50 (µM)
Numeric answer only, unit µM assumed.

Exercise: Field request: EC50 | item: COc1cc(-c2oc3cc(O)cc(O)c3c(=O)c2O)ccc1O [isorhamnetin, 3′methoxy-3,4,5,7-tetrahydroxyflavone]
Solution: 3.1
